- Test system: ERK
- protocolDescription: ERK activation in neonatal rat ventricular myocytes (pERK/ERK Western blot)
- Type: cell-based
- details: Rattus norvegicus, Ventricular myocyte; uninjured NRVMs, 15 minutes, propranolol pre-treatment; read-out: EC50, ERK phosphorylation

>  <smilesEntry>
Cc1c(OCC2=NCCN2)ccc(Cl)c1NS(C)(=O)=O

>  <unitInfo>
µM

>  <EC50>
0.48

$$$$
